- Target entity: GRIP2_5, Q9C0E4
- Sequence (Q9C0E4 544-642): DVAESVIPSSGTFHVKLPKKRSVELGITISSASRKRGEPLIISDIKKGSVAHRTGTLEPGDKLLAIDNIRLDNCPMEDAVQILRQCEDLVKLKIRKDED
- Protocol: holdup assay
- Parameters: key: below the threshold = too weak to quantify, mostly under pKd 3.1 to 4
- Measurement setup: plain residues with an end cap or a label only (N-terminal biotin on a linker: ado-ado)

| Binder | pKd |
| --- | --- |
| DAAHHDESNC [FMNL3, Q8IVF7] | below the threshold |
| THREVKFTSL [CD46, P15529] | below the threshold |
| IKLETKKTKL [SLC15A2, Q16348] | 3.58 |
| DLLGGGSDSI [TNRC6B, Q9UPQ9] | below the threshold |

Cited source: paper PMC9482650
